assay: Protein binding in rat plasma assessed as fraction unbound; format: ADME, cell-free; conditions: read-out: PPB
Property: fraction unbound

Cc1ncc(-c2nc(Nc3ccc(C(=O)NC4CCN(C)CC4)c(F)c3)ncc2F)n1C(C)C :: 0.06
Cc1ncc(-c2nc(Nc3ccc(C(=O)N4CC[C@H](N(C)C)C4)cc3)ncc2F)n1C(C)C :: 0.04
Cc1ncc(-c2nc(Nc3ccc(C(=O)N4CCCN(C)CC4)cc3)ncc2F)n1C(C)C :: 0.07

Now look at this one.
GET /values?readout=fraction unbound&item= Cc1ncc(-c2nc(Nc3ccc(C(=O)NCCN(C)C)c(F)c3)ncc2F)n1C(C)C
0.07
